The values you see were collected from ChEMBL document CHEMBL1926551.

Tested on: rhinovirus A1B
Assay: Antiviral activity against Human rhinovirus 1B infected in human HeLa cells assessed as inhibition of virus induced-plaque formation after 3 days by neutral red-based plaque reduction assay
Format: functional, organism-based
Details: Rhinovirus A, 72 h
VALUE KIND: log10 of IC50 (log10 of the value in µM)
Form field - Quantity: IC50; Unit: µM; Scale: log10

Past entries and their recorded results:
> print(dat)
                           smiles.notation     value.kind  assay.value
 1  Clc1ccc(/C=C/C=C2\COc3ccc(Cl)cc3C2)cc1  log10 of IC50         1.06
 2       Clc1ccc(C/C=C/C2=Cc3ccccc3OC2)cc1  log10 of IC50         0.56
 3  O=C1/C(=C/C=C/c2ccc(Cl)cc2)COc2ccccc21  log10 of IC50         0.40
 4      Clc1ccc(/C=C/C=C2\COc3ccccc3C2)cc1  log10 of IC50         0.14
 5     Fc1ccc2c(c1)C/C(=C/C=C/c1ccccc1)CO2  log10 of IC50         0.75
 6   O=C1/C(=C/C#Cc2ccccc2)COc2ccc(Cl)cc21  log10 of IC50         0.90
 7      O=C1/C(=C/C=C/c2ccccc2)COc2ccccc21  log10 of IC50        -0.07
 8       O=C1/C(=C/C#Cc2ccccc2)COc2ccccc21  log10 of IC50         0.97
 9  O=C1/C(=C/C=C/c2ccccc2)COc2ccc(Cl)cc21  log10 of IC50         0.00
10        C(/C=C/c1ccccc1)=C1/COc2ccccc2C1  log10 of IC50         0.00

// batch mode: one log10 of IC50 value per listed entry
1. C1=C(/C=C/Cc2ccccc2)COc2ccccc21
2. O=C1/C(=C/C=C/c2ccccc2)COc2ccc(F)cc21
3. Clc1ccc(C/C=C/C2=Cc3cc(Cl)ccc3OC2)cc1
4. Clc1ccc2c(c1)C/C(=C/C=C/c1ccccc1)CO2
5. O=C1/C(=C/C=C/c2ccc(Cl)cc2)COc2ccc(Cl)cc21

1.13
0.70
0.99
0.45
0.53

May I ask what log10 of IC50 has been recorded for Clc1ccc2c(c1)C=C(/C=C/Cc1ccccc1)CO2 ?
-0.38

----------
Experiment: Therapeutic index, ratio of TC50 for human HeLa cells to IC50 for Human rhinovirus 1B infected in human HeLa cells
Assay type: cell-based
Details: read-out: TI
VALUE KIND: selectivity ratio
Answers are plain numbers.

Example results:
> print(dat)
                          smiles.notation  assay.value
1       Clc1ccc(C/C=C/C2=Cc3ccccc3OC2)cc1         27.7
2  O=C1/C(=C/C=C/c2ccccc2)COc2ccc(Cl)cc21         50.5

Hey, can you go through the list below and give me selectivity ratio for every item?
1. O=C1/C(=C/C=C/c2ccc(Cl)cc2)COc2ccccc21
2. Clc1ccc(/C=C/C=C2\COc3ccccc3C2)cc1

[19.7, 36]

----------
Experiment: Therapeutic index, ratio of TC50 for human HeLa cells to IC50 for Human rhinovirus 14 infected in human HeLa cells
Format: cell-based
Settings: read-out: TI
For each entry below, report its selectivity ratio value.
One number for each entry.

Study these solved cases before continuing.
> print(dat)
                         smiles.notation         value.kind  assay.value
1    Fc1ccc2c(c1)C/C(=C/C=C/c1ccccc1)CO2  selectivity ratio         2.05
2  O=C1/C(=C/C=C/c2ccccc2)COc2ccc(F)cc21  selectivity ratio         2.94
3      O=C1/C(=C/C#Cc2ccccc2)COc2ccccc21  selectivity ratio          2.5
4        C1=C(/C=C/Cc2ccccc2)COc2ccccc21  selectivity ratio         6.76
5  O=C1/C(=C/C#Cc2ccccc2)COc2ccc(Cl)cc21  selectivity ratio         2.47

// query selectivity ratio value for entry C(/C=C/c1ccccc1)=C1/COc2ccccc2C1
2.1

----------
Test: Cytotoxicity against human HeLa cells after 3 days by microscopic analysis
Format: cell-based
Details: read-out: MNCC
Answer each item with its documented MNTC at 72 h.
Include the unit right after the number.

Solved cases (3 shown):
> print(dat)
                         smiles.notation    value.kind  assay.value
1  Clc1ccc(C/C=C/C2=Cc3cc(Cl)ccc3OC2)cc1  MNTC at 72 h        25 µM
2  O=C1/C(=C/C#Cc2ccccc2)COc2ccc(Cl)cc21  MNTC at 72 h        50 µM
3        C1=C(/C=C/Cc2ccccc2)COc2ccccc21  MNTC at 72 h        50 µM

API: the following record is the query input.
// lookup MNTC at 72 h for Clc1ccc(/C=C/C=C2\COc3ccccc3C2)cc1
25 µM
